- Test target: T1, cynomolgus (Macaca fascicularis) ST2L extracellular domain with C-terminal His6 tag (Macaca fascicularis (cynomolgus), UniProt Q01638 19-321 (human entry))
- T1 construct: also called cyno ST2L-ECD; cynoST2L-ECD
- T1 chain: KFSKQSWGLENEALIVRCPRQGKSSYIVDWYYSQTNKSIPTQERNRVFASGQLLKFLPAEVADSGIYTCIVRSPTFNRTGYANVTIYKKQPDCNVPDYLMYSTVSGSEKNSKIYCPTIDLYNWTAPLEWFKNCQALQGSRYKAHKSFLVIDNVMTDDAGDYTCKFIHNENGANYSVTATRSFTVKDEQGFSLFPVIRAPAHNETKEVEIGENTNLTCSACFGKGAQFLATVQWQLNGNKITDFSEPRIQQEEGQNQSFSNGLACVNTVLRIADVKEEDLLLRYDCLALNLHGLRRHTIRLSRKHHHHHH
- Assay comment: SPR, mAb captured, ST2L-ECD in solution
Assign pKd to each entry below.
Reminder that pKd is minus the log10 of a molar concentration.

Lookup: Given the binder STLM231 (antibody, V domains shown, VH STLH201 + VL STLL273; also called S1LM231) VH: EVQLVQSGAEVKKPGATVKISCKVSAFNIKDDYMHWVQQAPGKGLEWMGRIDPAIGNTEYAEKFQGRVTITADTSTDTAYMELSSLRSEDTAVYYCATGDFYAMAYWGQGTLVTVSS VL: DIQMTQSPSSLSASVGDRVTITCITNTDIDDVIHWYQQKPGKVPKLLIYEGNTLRPGVPSRFSGSGSGTDFTLTISSLQPEDVATYYCLQSDNMLTFGQGTKLEIK , what is its reported pKd?
Found: 9.76

Lookup: Now consider STLM221 (antibody, V domains shown, frameworks VH3-23 / Vk-L6) VH: EVQLLESGGGLVQPGGSLRLSCAASGFTFSIYDMFWVRQAPGKGLEWVSYIRGEGGDTNYADSVKGRFTISRDNSKNTLYLQMNSLRAEDTAVYYCARDPWSTEGSFFVLDYWGQGTLVTVSS VL: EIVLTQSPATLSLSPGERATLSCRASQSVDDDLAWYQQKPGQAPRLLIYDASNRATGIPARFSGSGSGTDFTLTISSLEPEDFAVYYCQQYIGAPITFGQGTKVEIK and answer again.
Found: 10.66

Lookup: Now consider STLM226 (antibody, V domains shown, VH STLH201 + VL STLL280) VH: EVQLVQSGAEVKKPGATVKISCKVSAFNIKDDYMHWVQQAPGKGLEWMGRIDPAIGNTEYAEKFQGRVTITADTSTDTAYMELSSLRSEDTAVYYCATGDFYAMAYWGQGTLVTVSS VL: DIQMTQSPSSLSASVGDRVTITCITNTDIDDVIHWYQQKPGKAPKLLIYEGNTLRPGVPSRFSGSGSGTDFTLTISSLQPEDFATYYCLQSDNLLTFGQGTKLEIK and answer again.
Found: 9.52

The values you see were collected from patent US20170066831A1.
